test system: UACC-257; assay: NCI tumour cell line growth inhibition, 48 h
The source made the active and inactive calls. No stated cut-off is given here; in the data, active = GI50 up to about 1.1 µM and inactive = higher.
readout-kind: GI50

Solved entries (count: 5):
> print(dat)
                                   compound               result
1  C=CCN1CCC23c4c5ccc(O)c4OC2C(=NN=C2CCC4(O)C6Cc7ccc(O)c8c7C4(CCN6CC=C)C2O8)CCC3(O)C1C5 (stereo unspecified)   23.9 µM (inactive)
2  CC(O)(/C=C/c1ccccc1)P(=O)(O)c1ccccc1 (stereo unspecified)  > 100 µM (inactive)
3  CCOC(=O)NC(Nc1ccc(F)cc1)(C(=O)OCC)C(F)(F)F (stereo unspecified)   3.47 µM (inactive)
4  COc1cccc(C2c3cc4c(cc3OC(Nc3ccccc3)C2C)OCO4)c1OC (stereo unspecified)   35.6 µM (inactive)
5     C=CCN1C(=O)/C(=C/c2ccco2)N=C1SC/C=C/C   48.5 µM (inactive)

Next, consider the following compound.
Q) What value of GI50 has been recorded for this entry: Nc1nc(O)c2ncn(C3C=CC(CO)C3)c2n1 (stereo unspecified)
A) > 100 µM (inactive)

* * *

test system: EKVX; assay: NCI tumour cell line growth inhibition, 48 h
Calls of active or inactive are those of the source. No stated cut-off is given here; in the data, active = GI50 up to about 1.1 µM and inactive = higher.
Bench note: report the call from active, inactive

> print(dat)
                                   compound  class.name
1                          NC1(C(=O)O)CCCC1    inactive
2       O=C1/C(=C/c2cccs2)NC(=S)N1CN1CCCCC1    inactive
3  O=C(CCC(=O)C(C(=O)c1ccccc1)c1ccccc1)Nc1cccc(C(F)(F)F)c1 (stereo unspecified)    inactive

Q) What did the test return for CC1=Nn2c(nc3sc4c(c3c2=O)CCCC4)SC1 ?
A) inactive

Q) Would you mind telling me which call this test gave COC(=O)C(=O)CC(=O)CCn1ncc(Cl)c(Cl)c1=O ?
A) inactive

Q) Please share the test call associated with COC(=O)C(Cc1c[nH]c2ccccc12)NC(=O)C(Cc1c[nH]c2ccccc12)NC(=O)OCc1ccccc1 (stereo unspecified) .
A) inactive

Q) Would you mind telling me which call this test gave O=C(c1cccs1)N(C(=O)N1CCC(c2ccccc2)CC1)c1ccccc1 ?
A) inactive

* * *

system: HT-29; experiment: NCI tumour cell line growth inhibition, 48 h
Activity calls are given as the source filed them. Rule as the data show it: active = GI50 up to about 1.1 µM and inactive = higher.
Thanks in advance; please answer with one of these: YES for active, NO for inactive

compound	study-target	class-name
CCOC(=O)CCn1cnc(N)n1	HT-29	NO

Q) Which outcome did this test record for the compound C=CCC1(O)C(=O)OC2C(O)COC21O (stereo unspecified) ?
A) NO

Q) # fetch the recorded call for C=CCNC(=S)N/C=C(\C#N)C(N)=O here
A) NO

Q) Answer briefly: the call reported for CNC(=O)CCCNC(=O)CCCCC(=O)N(C)C in this assay.
A) NO

Q) Hi, do you know how CCCCN(CCCC)CCCn1cnc2ncccc2c1=O came out in this test?
A) NO

Q) Outcome logged for CN(C)CCNC(=O)c1cccc2ccc(-c3ccc(-c4ccccc4)cc3)nc12 in this assay:
A) NO

Q) Recorded test outcome, item C/C(=N\c1ccc(Cl)c(Cl)c1)c1ccncc1
A) NO

Q) Any idea what this test logged for O=C(O)c1cc2sc(C(=O)O)cc2s1 ?
A) NO

Q) Give the logged outcome of this assay for the following compound: CC(=O)O[C@H]1C(=O)[C@@]2(C)[C@H]([C@H](OC(=O)c3ccccc3)[C@]3(O)C[C@H](OC(=O)[C@H](O)[C@@H](NC(=O)CC(C)C)c4ccccc4)C(C)=C1C3(C)C)[C@]1(OC(C)=O)CO[C@@H]1C[C@@H]2O
A) YES

* * *

tested on: M19-MEL; test: NCI tumour cell line growth inhibition, 48 h
Active and inactive are the calls of the source. Rule as the data show it: active = GI50 up to about 1.1 µM and inactive = higher.
readout-kind: GI50

Q) Item CC[C@](C)(O)C(=O)O[C@H]1C(=O)O[C@@H]2C[C@H]3C(C)=C[C@H](O)[C@@H](O)[C@]3(C)[C@H]3[C@@]4(O)OC[C@]32[C@@H]1[C@@H](C)[C@H]4O with M19-MEL - GI50?
A) 11 µM (inactive)

Q) Please provide the recorded GI50 for NC1(C(=O)O)CCCC1 , tested on M19-MEL.
A) > 625 µM (inactive)

Q) Request body: readout GI50, system M19-MEL, query CCOC(=O)NC(=O)c1cn(CCCO)c(=O)[nH]c1=O . Return the value.
A) > 100 µM (inactive)

Q) // fetch M19-MEL GI50 for C=C(C(=O)C(=O)Oc1ccc(Cl)cc1)C(=O)c1ccc(C)cc1
A) 17.7 µM (inactive)

Q) Recall the recorded GI50 for O=C(/C=C/c1cccc([N+](=O)[O-])c1)c1cccnc1 with M19-MEL and state it.
A) 31.2 µM (inactive)

* * *

system: OVCAR-8; assay: NCI tumour cell line growth inhibition, 48 h
The source made the active and inactive calls. No stated cut-off is given here; in the data, active = GI50 up to about 1.1 µM and inactive = higher.
readout-kind: GI50

// below: answered compounds
> print(dat)
                                   compound  readout.kind               result
1  NS(=O)(=O)c1ccc(NNC(=O)c2cccc3c(=O)c4ccccc4[nH]c23)cc1          GI50  > 100 µM (inactive)
2  CC(=O)OCC(OC(C)=O)C(OC(C)=O)C(OC(C)=O)C(=O)CNn1c(-c2ccccc2Cl)nc2ccc(Br)cc2c1=O (stereo not drawn)          GI50   76.9 µM (inactive)

Q) Endpoint output: GI50 of COc1cc(C2c3cc4c(cc3OC(NNS(=O)(=O)c3ccc(C)cc3)C2C)OCO4)cc(OC)c1O (stereo not drawn) . Value?
A) 6.82 µM (inactive)

* * *

Overview of reported GI50 across a group of compounds:
tested on: HCT-15
Unit µM implied. Number only.

Some entries whose results are on file:
> print(dat)
                                   compound  study.target  quantitative.result
1   C/C(=N\NC(=S)N/N=C(\C)c1ccccn1)c1ccccn1        HCT-15                0.627
2  CC(=O)/C=C/c1ccc(C2CC(C)=Nc3c(ccc4c3C(=O)c3ccccc3C4=O)N2)cc1 (stereo not drawn)        HCT-15                 27.2
3  Nc1cccc(OCc2nc(N)nc(N)c2-c2ccc(Cl)cc2)c1        HCT-15                 39.2

Now look at this one.
Q) # query: GI50 of entry Cc1ccc(-c2c(C#N)c(-c3ccc(N(C)C)cc3)c(C#N)c(=O)n2NS(=O)(=O)c2ccccc2)cc1
A) 27.7

* * *

system: A549; assay: NCI tumour cell line growth inhibition, 48 h
Activity calls are given as the source filed them. Rule as the data show it: active = GI50 up to about 1.1 µM and inactive = higher.
Choose the fitting class; nothing outside Y = active, N = inactive is accepted.

Record excerpt, results attached:
> print(dat)
                                   compound  study.target  class.name
1  Cc1ccccc1OC(C)C(=O)NN1C(=O)CSC1c1ccccc1 (centres undefined)          A549           N
2          O=C(Cc1ccc(OCc2cccc(Cl)c2)cc1)NO          A549           N
3                         CC(C)CNCCc1ccccn1          A549           N

Turning now to a further compound:
Q) Which outcome was entered for the compound CN(C(=O)C12C3C4C1C1C2C3C41C(O)C(C)(C)C)C(C)(C)C (centres undefined) in this test?
A) N

* * *

test system: DU-145; test: NCI tumour cell line growth inhibition, 48 h
Activity calls are given as the source filed them. Cut-off read from the data, not from the text of the source: active = GI50 up to about 1.1 µM and inactive = higher.
readout-kind: GI50

compound	study-target	GI50
CC(NC(=O)C(Cc1ccc(OC(=O)c2ccccc2)cc1)NC(=O)OC(C)(C)C)C(=O)NCC(=O)NC(Cc1ccccc1)NC(=O)OCc1ccccc1 (stereo not given)	DU-145	> 100 µM (inactive)

Q) What does the data say about its GI50? Entry: COCc1nc2c(OC)c(-c3nc4ccc(N5CCN(C)CC5)nc4[nH]3)cc(OC)c2n1C
A) 37.7 µM (inactive)

Q) Need GI50, item C=CCP(=O)(CC=C)C(Cl)Cl
A) > 100 µM (inactive)

Q) Sample CC(C1CCCC1=O)C1CCCC1=O (stereo not given) — what was its GI50?
A) > 100 µM (inactive)

* * *

system: SK-MEL-28; experiment: NCI tumour cell line growth inhibition, 48 h
Active and inactive are the calls of the source. No stated cut-off is given here; in the data, active = GI50 up to about 1.1 µM and inactive = higher.
// reported GI50 per item

Some solved cases for reference:
compound	GI50
COc1cc2c(c(OC)c1OC)-c1ccc(SC)c(=O)cc1[C@@H](NC(=O)c1ccc([N+](=O)[O-])cc1)CC2	4.45 µM (inactive)
COC(=O)C1C(=O)O[C@@H](c2ccc(OC)cc2)C1C(=O)OC (some centres undefined)	> 100 µM (inactive)
CCc1cc2c(c3[nH]ccc13)[C@@H](C)C[C@H]2C	16.1 µM (inactive)

Q) GI50 lookup needed for C/C(=C1/N=C(c2cc([N+](=O)[O-])ccc2Cl)N(c2ccc(Br)cc2)C1=O)c1cc2ccccc2oc1=O , thanks.
A) 60.8 µM (inactive)

Reference source: ChEMBL document CHEMBL1201862
